Hey, just so you know, these numbers are from patent US20070077617.

biological target: fusion protein PRQ
Sequence (chain, as listed by the source): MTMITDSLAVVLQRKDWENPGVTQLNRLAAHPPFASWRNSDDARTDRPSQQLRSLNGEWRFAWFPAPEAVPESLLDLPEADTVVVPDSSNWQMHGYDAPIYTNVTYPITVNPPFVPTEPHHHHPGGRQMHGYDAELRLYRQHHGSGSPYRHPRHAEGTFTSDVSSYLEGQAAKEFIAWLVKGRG
READOUT: relative cleavage efficiency

{"PROTEIN": "OmpT protease variant OmpT D97C (protein) STETLSFTPDNINADISLGTLSGKTKERVYLAEEGGRKVSQLDWKFNNAAIIKGAINWDLMPQISIGAAGWTTLGSRGGNMVDQDWMDSSNPGTWTCESRHPDTQLNYANEFDLNIKGWLLNEPNYRLGLMAGYQESRYSFTARGGSYIYSSEEGFRDDIGSFPNGERAIGYKQRFKMPYIGLTGSYRYEDFELGGTFKYSGWVESSDNDEHYDPGKRITYRSKVKDQNYYSVAVNAGYYVTPNAKVYVEGAWNRVTNKKGNTSLYDHNNNTSDYSKNGAGIENYNFITTAGLKYTF", "VALUE MEASURED": "less than 3%"}
{"PROTEIN": "OmpT protease variant OmpT D97F (protein) STETLSFTPDNINADISLGTLSGKTKERVYLAEEGGRKVSQLDWKFNNAAIIKGAINWDLMPQISIGAAGWTTLGSRGGNMVDQDWMDSSNPGTWTFESRHPDTQLNYANEFDLNIKGWLLNEPNYRLGLMAGYQESRYSFTARGGSYIYSSEEGFRDDIGSFPNGERAIGYKQRFKMPYIGLTGSYRYEDFELGGTFKYSGWVESSDNDEHYDPGKRITYRSKVKDQNYYSVAVNAGYYVTPNAKVYVEGAWNRVTNKKGNTSLYDHNNNTSDYSKNGAGIENYNFITTAGLKYTF", "VALUE MEASURED": "less than 3%"}
